Kindly find below IC50 information for Cytochrome P450 1A2 (Homo sapiens, UniProt P05177) taken from the literature.
STUDY_TARGET: Cytochrome P450 1A2 (Homo sapiens, UniProt P05177)
Sequence (P05177 whole entry): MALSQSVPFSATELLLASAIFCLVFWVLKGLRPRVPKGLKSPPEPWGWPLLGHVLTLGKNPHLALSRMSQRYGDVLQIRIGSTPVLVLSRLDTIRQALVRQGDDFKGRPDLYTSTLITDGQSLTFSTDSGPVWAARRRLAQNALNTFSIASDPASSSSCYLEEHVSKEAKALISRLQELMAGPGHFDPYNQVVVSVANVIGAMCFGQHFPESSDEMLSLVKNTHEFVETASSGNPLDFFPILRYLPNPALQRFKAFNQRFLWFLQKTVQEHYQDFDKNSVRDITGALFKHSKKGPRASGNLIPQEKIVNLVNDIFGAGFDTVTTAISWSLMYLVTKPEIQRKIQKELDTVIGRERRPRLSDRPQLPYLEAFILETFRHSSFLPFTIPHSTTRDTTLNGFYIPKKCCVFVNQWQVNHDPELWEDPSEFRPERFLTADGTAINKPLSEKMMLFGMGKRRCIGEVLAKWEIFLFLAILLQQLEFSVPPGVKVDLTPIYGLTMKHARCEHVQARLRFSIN

Known results for compounds:
* O=C(O)CCCOc1cccc(CCCCCCOc2cc(-c3ccccc3)cc(-c3ccccc3)n2)c1CCC(=O)O | > 7.5 µM
* O=C(Nc1nc2cccc(-c3ccc(CN4CCS(=O)(=O)CC4)cc3)n2n1)C1CC1 | > 70 µM
* Cc1cc(Nc2cc(C)c(C#N)c(NCCOc3ccncc3)n2)n[nH]1 | < 0.4 µM
* Cl.N[C@@H]1CCC=C(c2ccc(F)cc2)[C@H]1CNc1cc(F)c(S(=O)(=O)Nc2nccs2)cc1Cl | > 50 µM

Name the reported IC50 value associated with the compound Cc1noc(C)c1-c1cnc2c3ccc(C(C)(C)O)cc3n([C@H](c3ccccc3)C3CCOCC3)c2c1 > 20 µM

----------
Kindly find below IC50 information for Cytochrome P450 1A2 (Homo sapiens) taken from the literature.

- CC(CCN1CCOCC1)CC(=O)Nc1ccc(C(=O)Nc2nccs2)cc1 (stereo not given): > 40 µM
- CC1CCN([C@H](c2ccc(F)cc2)c2ccc([C@@H](C)C(=O)O)cc2-c2ccc(C(F)(F)F)cc2)CC1: > 35 µM
- Cc1ccc(CN2CC[C@@H](N3CC[C@@H](c4ccc(O)cc4)[C@H](F)C3)C2=O)cc1: > 18 µM
- COCCNc1cc(C)nc(-c2ccc(Br)cc2)n1: < 0.091 µM
- Cc1cc2c(F)c(Oc3ncnn4cc(OC[C@@H](C)OC(=O)C(N)CC(C)C)c(C)c34)ccc2[nH]1 (single isomer, unassigned): 34 µM

From here, focus on the item given below.
Write down the reported IC50 of C[C@@H](O)c1nc2cnc3[nH]ccc3c2n1[C@H]1CCCOC1 , test system: Cytochrome P450 1A2 (Homo sapiens). > 10 µM

----------
pIC50: −log10 of the molar value.
Kindly find below pIC50 information for Cytochrome P450 1A2 (Homo sapiens, UniProt P05177) taken from the literature.

Known results for molecules:
* Cc1cc(NCCc2cccnc2)nc(-c2ccc(Br)cc2)n1 | > 7.04
* COCCCc1ccc2oc(-c3ccc(OC)c(OC)c3)cc2c1 | < 4.30
* O=S(=O)(C1CC1)N1CCC(Oc2ccc3c(c2)CCC2(CCN(C4CCC4)CC2)O3)CC1 | < 4.52
* C[C@H](CN1CCC[C@@H]1C)NC(=O)c1ccc(-c2noc(C(F)(F)F)n2)cc1 | < 4.30
* Nc1nc2ccc(C(=O)NCCc3cccs3)cc2s1 | 4.60 to 5.00
* C[C@@H]1CCCN1CCCOc1ccc(-c2ccc(=O)n(C)n2)cc1F | < 4.52
* C[C@@H]1Cc2c(ccc3[nH]ncc23)[C@@H](c2c(F)cc(N3CCC4(CCN(C(=O)CN5Cc6cc7c(cc6C5)C(=O)N(C5CCC(=O)NC5=O)C7=O)CC4)CC3)cc2F)N1CC(F)F (some centres not stated) | < 5.00
* CC(C)Oc1ccc(-c2nc(-c3ccc4c(c3)CCN(CCCC(=O)O)CC4)no2)cc1C#N | < 4.30
* CB1C=Cc2c(cccc2OCC(O)CN(C)C)N1 (configuration not stated) | < 5.00
* CC(C)c1nc(CN(C)C(=O)N[C@H](C(=O)N[C@H](CCN(Cc2ccccc2)C(=O)OCc2cncs2)Cc2ccccc2)C(C)C)cs1 | < 4.60

Write down the reported pIC50 of C[C@@H](O)c1nc2cnc3[nH]ccc3c2n1[C@H]1CC[C@@H](NCC(F)(F)F)C1 , test system: Cytochrome P450 1A2 (Homo sapiens, UniProt P05177). < 5.00

Write down the reported pIC50 of N#Cc1ccccc1SC1=C(O)CC(c2ccccc2)CC1=O (configuration not stated) , test system: Cytochrome P450 1A2 (Homo sapiens, UniProt P05177). < 5.30
